For UniProtKB Q08499, measured IC50 is reported for the entries below.
Sequence (Q08499 whole entry): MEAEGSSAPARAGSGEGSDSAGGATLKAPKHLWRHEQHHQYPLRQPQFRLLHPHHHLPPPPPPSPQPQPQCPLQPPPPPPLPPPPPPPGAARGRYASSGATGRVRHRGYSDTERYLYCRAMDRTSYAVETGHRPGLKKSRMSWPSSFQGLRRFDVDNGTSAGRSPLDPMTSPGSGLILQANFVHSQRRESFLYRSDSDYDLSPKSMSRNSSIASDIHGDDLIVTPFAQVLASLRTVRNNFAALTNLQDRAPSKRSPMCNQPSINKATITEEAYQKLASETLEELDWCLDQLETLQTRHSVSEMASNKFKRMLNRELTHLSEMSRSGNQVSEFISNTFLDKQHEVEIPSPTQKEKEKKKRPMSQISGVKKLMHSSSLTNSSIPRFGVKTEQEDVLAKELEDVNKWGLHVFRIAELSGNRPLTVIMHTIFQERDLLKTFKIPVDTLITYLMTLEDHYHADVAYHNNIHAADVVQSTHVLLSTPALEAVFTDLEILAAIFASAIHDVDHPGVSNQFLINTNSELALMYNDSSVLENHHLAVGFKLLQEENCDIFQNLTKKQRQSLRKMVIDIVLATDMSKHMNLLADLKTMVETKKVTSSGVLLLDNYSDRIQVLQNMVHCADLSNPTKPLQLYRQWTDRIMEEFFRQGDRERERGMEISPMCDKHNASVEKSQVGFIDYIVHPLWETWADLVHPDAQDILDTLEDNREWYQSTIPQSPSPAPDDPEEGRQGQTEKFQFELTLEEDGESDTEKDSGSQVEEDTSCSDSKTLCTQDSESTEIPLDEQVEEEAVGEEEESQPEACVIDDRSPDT

Examples from the recorded data:
> print(dat)
                         structure.notation  test.result
1  Cn1nc(-c2ccc(Cl)cc2)s/c1=N\c1cccc(C#N)c1      36.3 µM
2    Cn1nc(-c2ccc(Cl)cc2)s/c1=N\c1ccc(F)cc1     > 101 µM
3    Cn1nc(-c2ccc(Cl)cc2)s/c1=N\C1(CO)CCCC1     > 101 µM
4  CCNS(=O)(=O)c1cc(-c2nn(C)/c(=N/C3CCCCC3)s2)ccc1Cl      5.84 µM
5            CCC/N=c1\sc(-c2ccc(Cl)cc2)nn1C        26 µM
6   Cn1nc(-c2ccc(C(N)=O)cc2)s/c1=N\C1CCCCC1      15.3 µM

input: Please look up its IC50: Cn1nc(-c2ccc(Cl)cc2)s/c1=N\C1CCCCCCC1
output: > 101 µM

input: Moving on to the next molecule: Cn1nc(-c2ccccc2Cl)s/c1=N\C1CCCCC1
output: 40 µM

input: Moving on to the next molecule: COC(=O)c1cccc(-c2nn(C)/c(=N/C3CCCCC3)s2)c1
output: 19 µM

input: Moving on to the next molecule: Cn1nc(-c2ccc(Cl)cc2)s/c1=N\c1cccc(-c2nn[nH]n2)c1
output: 4.26 µM

input: Moving on to the next molecule: Cn1nc(-c2cccc(Cl)c2)s/c1=N\C1CCCCC1
output: > 101 µM

All values here come from ChEMBL document CHEMBL1137197.
